Tested on: K-562 leukemia
Experiment: NCI tumour cell line growth inhibition, 48 h
Listing of entries alongside the reported TGI.

# Compound, Result Value
measured = [
    ("O=C(/C=C(\\O)C(=O)O)/C=C(\\O)c1ccc(Cl)cc1", "> 100 µM"),
    ("N=C(N)c1ccc(-c2ccc(-c3ccco3)o2)cc1", "10.4 µM"),
    ("O=C(/C=C/c1ccccc1O)CC(=O)/C=C/c1ccccc1O", "> 31.6 µM"),
]

The recorded TGI for entry COc1cc(CNc2nc3cc(C(F)(F)F)ccc3nc2C(=O)O)cc(OC)c1OC equals 61 µM

The recorded TGI for entry CCOC(=O)n1c2ccccc2c2c(O)c(OC)c3c(c21)C(=O)NC3=O equals > 100 µM

Sure, the documented TGI for O=c1[nH]nc(Nc2ccccc2)c2nnn(Cc3ccccc3)c12 is > 100 µM

Documented TGI of COC(=O)c1ccc2c(c1)CC1(C2)Cc2ccc3c(c2C1)CCC3 (stereo unspecified) : > 100 µM

Input COc1ccc(-c2ccc(/C=N/n3cnn(CN4CCN(C)CC4)c3=S)o2)c([N+](=O)[O-])c1 . Output TGI: > 100 µM

get_value(item= CC(C)=CCNc1ncnc2c1ncn2C1OC(COP(=O)(O)O)C(O)C1O (stereo unspecified) , readout=TGI) returns > 100 µM

Summary for this compound, CCCCC(=O)Nc1ccc2cc(C(=O)OC)c(=O)[nH]c2n1 : TGI is > 100 µM

Please fill in: TGI reported for CC(C)=CCC[C@@H](C)c1c(O)c(O)c(C)c2nc3ccccc3nc12 = > 32.5 µM
